From: patent US20240218022A1

Biological target: mouse VISTA (mVISTA) (Mus musculus, UniProt Q9D659)
Construct: expressed in transfected cells; host or cells: Human embryonic kidney 293T cells
Sequence (Q9D659 33-308): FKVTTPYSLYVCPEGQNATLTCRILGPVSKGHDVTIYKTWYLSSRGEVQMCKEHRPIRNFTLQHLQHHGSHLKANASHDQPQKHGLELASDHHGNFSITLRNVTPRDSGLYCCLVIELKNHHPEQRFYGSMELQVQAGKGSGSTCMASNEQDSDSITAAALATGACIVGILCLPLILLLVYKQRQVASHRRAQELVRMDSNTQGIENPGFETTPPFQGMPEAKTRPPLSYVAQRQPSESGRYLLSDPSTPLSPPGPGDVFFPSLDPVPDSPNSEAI
Assay: Cell-Based Binding High-Content Assay For mVISTA (HC CBA mVISTA)
Settings: read-out: HC CBA mVISTA IC50
Positions of bridges follow the written chain, without caps; N, C: chain ends. Non-standard residues stand in square brackets, D forms with d. Residues, ends and D or L forms follow the SMILES beside them. Phe(3-Me) = Cc1cccc(C[C@H](N)C(=O)O)c1; Ahp(2) = CCCCC[C@H](N)C(=O)O; NMeNle = CCCC[C@H](NC)C(=O)O; NHexGly = CCCCCCNCC(=O)O; Nle = CCCC[C@H](N)C(=O)O
Test Readout: pIC50
# reply with the number alone; pIC50 is -log10 of concentration in mol/L

molecule="CCCCCCN1CC(=O)N[C@@H](Cc2ccc(O)cc2)C(=O)N[C@@H](CCCC)C(=O)N[C@@H](CC(N)=O)C(=O)N[C@@H](CCCNC(=N)N)C(=O)N[C@@H](CC(C)C)C(=O)N[C@@H](CCCCC)C(=O)N2CCC[C@H]2C(=O)N[C@@H](C(C)C)C(=O)N[C@@H](CC(=O)O)C(=O)N[C@H](C(=O)NCC(=O)O)CSCC(=O)N[C@@H](Cc2ccccc2)C(=O)N[C@@H](Cc2cccc(C)c2)C(=O)N[C@@H](CC(=O)O)C1=O [compound 1329] ({CH2CO}-F[Phe(3-Me)]D[NHexGly]Y[Nle]NRL[Ahp(2)]PVDCG-OH; thioether N-14)" system_name="mouse VISTA (mVISTA) (Mus musculus, UniProt Q9D659)" readout_value=8.35

Alright, here's another molecule for you.
Identify the measured pIC50 of CCCCCCN1CC(=O)N[C@@H](Cc2ccc(O)cc2)C(=O)N[C@@H](CCCCC)C(=O)N[C@@H](CC(N)=O)C(=O)N[C@@H](CCCNC(=N)N)C(=O)N(C)[C@@H](CCCC)C(=O)N[C@@H](CCCCC)C(=O)N2CCC[C@H]2C(=O)N[C@@H](C(C)C)C(=O)N[C@@H](C(C)C)C(=O)N[C@H](C(=O)NCC(=O)O)CSCC(=O)N[C@@H](Cc2ccccc2)C(=O)N[C@@H](Cc2c[nH]c3ccccc23)C(=O)N[C@@H](CC(=O)O)C1=O [Example 1385] ({CH2CO}-FWD[NHexGly]Y[Ahp(2)]NR[NMeNle][Ahp(2)]PVVCG-OH; thioether N-14) for mouse VISTA (mVISTA) (Mus musculus, UniProt Q9D659).
7.98

###

Biological target: mouse VISTA (mVISTA) (Mus musculus, UniProt Q9D659)
Construct: expressed in transfected cells; host or cells: Human embryonic kidney 293T cells
Assay: Cell-Based Binding High-Content Assay For mVISTA (HC CBA mVISTA)
Settings: 293T cells expressing mouse VISTA; competition with biotinylated peptide (2 nM); read-out: HC CBA mVISTA IC50
Positions of bridges follow the written chain, without caps; N, C: chain ends. Non-standard residues stand in square brackets, D forms with d. Residues, ends and D or L forms follow the SMILES beside them. Ahp(2) = CCCCC[C@H](N)C(=O)O; NHexGly = CCCCCCNCC(=O)O
The following compounds are listed with their measured pIC50 values.
# reply with the number alone; pIC50 is -log10 of concentration in mol/L

compound="CCCCCCN1CC(=O)N[C@@H](Cc2ccc(O)cc2)C(=O)N[C@@H](CC(C)C)C(=O)N[C@@H](CC(N)=O)C(=O)N[C@@H](CCCNC(=N)N)C(=O)N[C@@H](CC(C)C)C(=O)N[C@@H](CCCCC)C(=O)N2CCC[C@H]2C(=O)N[C@@H](C(C)C)C(=O)N[C@@H](CC(=O)O)C(=O)N[C@H](C(=O)NCC(=O)O)CSCC(=O)N[C@@H](Cc2ccccc2)C(=O)N[C@@H](Cc2ccc(O)cc2)C(=O)N[C@@H](CC(=O)O)C1=O [Example 1011] ({CH2CO}-FYD[NHexGly]YLNRL[Ahp(2)]PVDCG-OH; thioether N-14)" readout_value=7.80

Alright, here's another compound for you.
Identify the measured pIC50 of CCCCCCN1CC(=O)N[C@@H](Cc2ccc(O)cc2)C(=O)N[C@@H](CCCCC)C(=O)N[C@@H](CC(N)=O)C(=O)N[C@@H](CCCCN)C(=O)N[C@@H](CC(C)C)C(=O)N[C@@H](CCCCC)C(=O)N2CCC[C@H]2C(=O)N[C@@H](C(C)C)C(=O)N[C@@H](CO)C(=O)N[C@H](C(=O)NCC(N)=O)CSCC(=O)N[C@@H](Cc2ccccc2)C(=O)N[C@@H](Cc2ccc(O)cc2)C(=O)N[C@@H](CC(=O)O)C1=O [Example 1035] ({CH2CO}-FYD[NHexGly]Y[Ahp(2)]NKL[Ahp(2)]PVSCG-NH2; thioether N-14) for mouse VISTA (mVISTA) (Mus musculus, UniProt Q9D659).
7.52
